- systemUnderTest: T1, mouse TNFR1 on L929 cells (mouse, UniProt P25118 30-454)
- T1 sequence (looked up): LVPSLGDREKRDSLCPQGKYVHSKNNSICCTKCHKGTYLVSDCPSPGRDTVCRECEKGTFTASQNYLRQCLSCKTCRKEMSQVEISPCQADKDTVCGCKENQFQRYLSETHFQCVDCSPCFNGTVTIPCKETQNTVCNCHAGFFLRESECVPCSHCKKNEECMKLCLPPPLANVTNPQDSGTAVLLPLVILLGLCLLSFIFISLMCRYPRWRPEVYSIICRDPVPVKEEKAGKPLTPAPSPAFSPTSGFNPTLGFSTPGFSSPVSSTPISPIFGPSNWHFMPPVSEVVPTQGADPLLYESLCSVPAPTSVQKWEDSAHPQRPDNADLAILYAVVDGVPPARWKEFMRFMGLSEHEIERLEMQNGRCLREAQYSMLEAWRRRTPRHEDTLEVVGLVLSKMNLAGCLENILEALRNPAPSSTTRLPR
- testDetails: cell-based or functional assay
measureName: L929 Cell Assay, Activity (IC50) (µM)

P. TAR2m-21-23 (other) VH: EVQLLESGGGLVQPGGSLRLSCAASGFTFNRYSMGWLRQAPGKGLEWVSRIDSYGRGTYYEDPVKGRFSISRDNSKNTLYLQMNSLRAEDTAVYYCAKISQFGSNAFDYWGQGTQVTVSS
Q. TAR2m-19 (other, anti-mouse TNFR1 dAb) EVQLLESGGGLVQPGGSLRLSCAASGFTFRKYDMHWVRQAPGKGLEWVSTISPSGRRTYYADSVKGRFTISRDNSKNTLYLQMNSLRAEDTAVYYCAENLDQVLSFDYWGQGTLVTVSS
Name the one with the greater L929 Cell Assay, Activity (IC50) value, either P or Q as given. Which one? Tell me its label. Q
(Q: 10 µM, P: 0.001 µM)
